Values were extracted from the supplement of paper PMC10065799.

# Target of assay: SHP2-C SH2
# Experiment: SH2 binding enrichment of the phosphorylated peptide, bacterial display (enrichment ratio); higher = better substrate or ligand; peptides without Tyr show the background
Measured parameter: SH2 binding enrichment

Before answering, review these 5 worked examples.
INSERT INTO assay_data (biopolymer_sequence, measured_parameter, observed_value) VALUES
  ('EQFELHCEMGS [CBL_Y371_Y371H_YF]', 'SH2 binding enrichment', 0.685),
  ('FAKTQYPDIFA [CRX_Y63_V66I_YF]', 'SH2 binding enrichment', 0.529),
  ('EMFNPCYGLFE [NEDD4L_Y679_Y679C]', 'SH2 binding enrichment', 0.803),
  ('VLAAQYTTVGR [SGSH_Y240_D235V]', 'SH2 binding enrichment', 2.77),
  ('GRPMDYHVSIT [OTOF_Y254_Q255H]', 'SH2 binding enrichment', 0.698);

A: APQYTYAQGGQ [FLNA_Y1763]
B: VVTFSYKPPGN [RBL2_Y544]
Hi, I'm comparing two records. Which one has the lower SH2 binding enrichment, A or B ? Write down the label attached to your selection.
B

P: FGSIMYEFVGK [SLC18A1_Y251_V249I]
Q: CLMILYRLKER [PTPRR_Y249]
R: ADARMYGVHPW [PLP1_Y207_L210H]
Ascending by SH2 binding enrichment, please: list the sequences accordingly. Output spec: a listing of the labels in the requested order.
R, P, Q

a: VEDQFYCVDCF [FHL1_Y208_YF]
b: ERDYTYEELLN [EIF2S2_Y176]
Could you please tell me which of these two has the higher SH2 binding enrichment: a or b ? Write down the label attached to your selection.
a
(a: 1.64, b: 0.737)

====

# Target of assay: SHP2-C SH2
# Experiment: SH2 binding enrichment of the phosphorylated peptide, bacterial display (enrichment ratio); higher = better substrate or ligand; peptides without Tyr show the background
Measured parameter: SH2 binding enrichment

Before answering, review these 4 worked examples.
INSERT INTO assay_data (biopolymer_sequence, target_of_assay, measured_parameter, observed_value) VALUES
  ('STAPSYGNPSS [CD19_Y378_G373S]', 'SHP2-C SH2', 'SH2 binding enrichment', 0.694),
  ('EEETDYTPVWC [UROD_Y30_G25E]', 'SHP2-C SH2', 'SH2 binding enrichment', 0.791),
  ('KILTHYKQPHT [KMT2D_Y5349_R5351Q]', 'SHP2-C SH2', 'SH2 binding enrichment', 0.998),
  ('IMICAYLLHRG [PTEN_Y138_V133I]', 'SHP2-C SH2', 'SH2 binding enrichment', 1.16);

A: DESEDCRDTVV [CNNM3_Y456_Y456C]
B: SGGGSYGSGGG [KRT1_Y539]
Could you please tell me which of these two has the higher SH2 binding enrichment: A or B ? Write down the label attached to your selection.
A
(A: 0.887, B: 0.608)

====

# Target of assay: Fes (UniProt P07332)
# Sequence (P07332 whole entry, looked up): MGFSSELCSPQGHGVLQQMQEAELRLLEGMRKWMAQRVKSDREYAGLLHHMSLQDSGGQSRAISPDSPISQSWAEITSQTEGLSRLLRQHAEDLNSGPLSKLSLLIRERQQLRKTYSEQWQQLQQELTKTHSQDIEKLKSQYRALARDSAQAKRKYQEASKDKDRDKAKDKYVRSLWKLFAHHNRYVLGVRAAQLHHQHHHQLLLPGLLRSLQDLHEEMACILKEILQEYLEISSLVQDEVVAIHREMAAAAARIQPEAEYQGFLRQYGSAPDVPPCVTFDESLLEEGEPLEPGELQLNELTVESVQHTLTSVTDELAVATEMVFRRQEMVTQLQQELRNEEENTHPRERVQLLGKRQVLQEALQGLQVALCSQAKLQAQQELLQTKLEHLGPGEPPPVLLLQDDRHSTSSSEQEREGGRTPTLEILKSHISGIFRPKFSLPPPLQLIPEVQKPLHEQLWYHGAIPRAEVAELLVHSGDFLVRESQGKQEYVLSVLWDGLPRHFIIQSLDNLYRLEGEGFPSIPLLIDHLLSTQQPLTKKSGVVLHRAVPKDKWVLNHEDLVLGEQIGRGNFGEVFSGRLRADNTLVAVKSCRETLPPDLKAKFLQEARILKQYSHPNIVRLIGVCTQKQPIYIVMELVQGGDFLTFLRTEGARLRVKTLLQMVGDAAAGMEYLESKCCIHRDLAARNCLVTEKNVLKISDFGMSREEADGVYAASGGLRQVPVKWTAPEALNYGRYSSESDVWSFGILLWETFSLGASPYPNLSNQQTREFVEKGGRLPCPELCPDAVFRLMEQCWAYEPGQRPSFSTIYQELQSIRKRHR
# Experiment: phosphorylation enrichment, bacterial display (enrichment ratio); higher = better substrate or ligand; peptides without Tyr show the background
Measured parameter: phosphorylation enrichment
Enter the number alone.

Before answering, review these 4 worked examples.
INSERT INTO measurements (biopolymer_sequence, measured_parameter, observed_value) VALUES
  ('FFRDGYMPRQF [GSS_Y270_YF]', 'phosphorylation enrichment', 0.82),
  ('FSDQVYRQRRK [TH_Y230]', 'phosphorylation enrichment', 0.787),
  ('REGKIYEYNQV [ZNF665_Y162_H157R]', 'phosphorylation enrichment', 0.788),
  ('CTTIHYNHMCN [TP53_Y234_Y236H]', 'phosphorylation enrichment', 0.796);

API: the following record is the query input.
// returns reported phosphorylation enrichment for input VCRHNYGVVES [HLA-DRB1_Y112_Y107V]
0.793

====

Listed sequences paired with reported phosphorylation enrichment
# Target of assay: Fyn (UniProt P06241)
# Sequence (P06241 whole entry, looked up): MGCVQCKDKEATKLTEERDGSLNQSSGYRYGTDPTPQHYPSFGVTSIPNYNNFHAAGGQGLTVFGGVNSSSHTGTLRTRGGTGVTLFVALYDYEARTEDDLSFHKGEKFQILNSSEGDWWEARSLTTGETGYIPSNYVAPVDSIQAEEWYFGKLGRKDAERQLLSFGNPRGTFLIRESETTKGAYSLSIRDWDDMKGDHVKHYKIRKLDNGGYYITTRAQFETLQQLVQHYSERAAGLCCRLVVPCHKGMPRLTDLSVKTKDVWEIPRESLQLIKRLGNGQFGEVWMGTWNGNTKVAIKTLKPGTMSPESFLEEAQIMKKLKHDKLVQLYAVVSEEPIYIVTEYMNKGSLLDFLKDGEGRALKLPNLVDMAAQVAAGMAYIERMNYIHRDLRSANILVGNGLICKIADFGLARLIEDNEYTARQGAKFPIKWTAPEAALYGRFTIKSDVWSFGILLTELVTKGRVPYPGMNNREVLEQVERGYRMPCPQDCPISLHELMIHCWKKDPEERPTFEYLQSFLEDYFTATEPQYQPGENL
# Experiment: phosphorylation enrichment, bacterial display (enrichment ratio); higher = better substrate or ligand; peptides without Tyr show the background
Enter the number alone.

// returns reported phosphorylation enrichment for input CVGGFYGGCNE [CTSC_Y352_Y347C]
0.678

// returns reported phosphorylation enrichment for input SMGMKYLEEKN [ZAP70_Y451]
0.7

// returns reported phosphorylation enrichment for input NTGGFYDLFGG [PTPN11_Y63_D61G_YF]
7.59

// returns reported phosphorylation enrichment for input ASFSLYEPAKM [MKI67_Y340_P338S]
1.27

====

# Target of assay: SHP2-C SH2
# Experiment: SH2 binding enrichment of the phosphorylated peptide, bacterial display (enrichment ratio); higher = better substrate or ligand; peptides without Tyr show the background
Measured parameter: SH2 binding enrichment

Before answering, review these 5 worked examples.
INSERT INTO measurements (biopolymer_sequence, observed_value) VALUES
  ('RALLNYIASKY [GSTA3_Y74_I71L]', 0.917),
  ('TRVMEYISCLD [CLTCL1_Y1043_R1046C]', 0.478),
  ('SAASSYSFSDL [EMD_Y59]', 0.598),
  ('ADCRYYTFPQM [GAMT_Y223_A224T]', 1.34),
  ('RFLRGYRQHAF [HLA-A_Y137_D140H_YF]', 0.284);

a: LSERGYSFVTT [ACTA2_Y200_T196S]
b: IWIFHYAKGQP [MPZ_Y82_S78W]
Hi, I'm comparing two records. Which one has the lower SH2 binding enrichment, a or b ? Write down the label attached to your selection.
b
(b: 1.55, a: 5.26)

I: RSSPVYVGRVV [TGM2_Y219]
II: FEEDSYSHVMA [FDPS_Y388_I391V_YF]
Could you please tell me which of these two has the higher SH2 binding enrichment: I or II ? Write down the label attached to your selection.
I

1: IMVFVYCRVFQ [ADRB2_Y219_S220C]
2: TKQLTYEEQYL [PIK3C3_Y310_D314Y]
Hi, I'm comparing two records. Which one has the lower SH2 binding enrichment, 1 or 2 ? Write down the label attached to your selection.
2
(2: 0.747, 1: 1.1)

====

# System: c-Abl (mouse)
# Experiment: phosphorylation enrichment, bacterial display (enrichment ratio); higher = better substrate or ligand; peptides without Tyr show the background
Measured parameter: phosphorylation enrichment
Enter the number alone.

Before answering, review these 2 worked examples.
INSERT INTO assay_data (biopolymer_sequence, measured_parameter, observed_value) VALUES
  ('RDVEQYVNNVN [PCDH19_Y1097_L1094V]', 'phosphorylation enrichment', 1.02),
  ('QRRFLYFFSFL [PTEN_Y176_V175L_YF]', 'phosphorylation enrichment', 1.09);

API: the following record is the query input.
Return phosphorylation enrichment measured with c-Abl (mouse) given this sequence: STAPSYGNPSS [CD19_Y378_G373S]
0.482

====

# Target of assay: SHP2-C SH2;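 also: peptide library displayed on the E. coli surface as eCPX fusions, selected cells deep-sequenced, score is each peptide's frequency after selection divided by its frequency in the input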
# Experiment: SH2 binding enrichment of the phosphorylated peptide, bacterial display (enrichment ratio); higher = better substrate or ligand; peptides without Tyr show the background
Measured parameter: SH2 binding enrichment

INSERT INTO measurements (biopolymer_sequence, observed_value) VALUES
  ('SQETFYRVSNM [ABCD1_Y181_Q178E_YF]', 0.807),
  ('KKCTRYIDCAL [ASPA_Y64_D68A]', 0.806),
  ('NTGGFYDLFGG [PTPN11_Y63_D61G_YF]', 0.784),
  ('LGSWTYPKTVS [ROS1_Y144_T145P]', 0.805),
  ('PLDGEYFILQI [TP53_Y327_T329I]', 0.794),
  ('VEFAKYGSLRG [RET_Y809_YF]', 0.82),
  ('EQKKYYNAMKN [SCN5A_Y1495_K1500N]', 0.809);

====

# Target of assay: Hck (UniProt P08631)
# Sequence (P08631 whole entry, looked up): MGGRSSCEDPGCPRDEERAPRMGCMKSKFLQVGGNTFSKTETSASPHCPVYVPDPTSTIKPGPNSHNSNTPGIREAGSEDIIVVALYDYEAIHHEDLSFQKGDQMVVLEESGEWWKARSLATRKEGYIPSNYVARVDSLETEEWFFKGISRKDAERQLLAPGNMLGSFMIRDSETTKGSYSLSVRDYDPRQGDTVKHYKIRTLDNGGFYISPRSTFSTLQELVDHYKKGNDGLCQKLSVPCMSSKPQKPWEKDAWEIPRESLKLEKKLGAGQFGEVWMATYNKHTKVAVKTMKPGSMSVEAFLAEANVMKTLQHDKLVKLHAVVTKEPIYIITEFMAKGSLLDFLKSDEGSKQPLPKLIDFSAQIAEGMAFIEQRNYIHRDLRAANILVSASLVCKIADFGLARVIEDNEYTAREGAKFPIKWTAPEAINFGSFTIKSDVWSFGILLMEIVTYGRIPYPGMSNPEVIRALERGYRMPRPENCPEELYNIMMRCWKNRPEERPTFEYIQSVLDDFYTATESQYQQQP
# Experiment: phosphorylation enrichment, bacterial display (enrichment ratio); higher = better substrate or ligand; peptides without Tyr show the background
Listed sequences paired with reported phosphorylation enrichment
Enter the number alone.

INSERT INTO assay_data (biopolymer_sequence, observed_value) VALUES
  ('SSNTEYLSASD [INSR_Y999_P997T]', 0.501);

// returns reported phosphorylation enrichment for input FSALDYKIFFF [WDPCP_Y210_L205F_YF]
0.504

// returns reported phosphorylation enrichment for input GIVEDYRPPVY [ACVRL1_Y421_F425V]
0.505

====

# Target of assay: EPHB2 (UniProt P29323)
# Sequence (P29323 whole entry, looked up): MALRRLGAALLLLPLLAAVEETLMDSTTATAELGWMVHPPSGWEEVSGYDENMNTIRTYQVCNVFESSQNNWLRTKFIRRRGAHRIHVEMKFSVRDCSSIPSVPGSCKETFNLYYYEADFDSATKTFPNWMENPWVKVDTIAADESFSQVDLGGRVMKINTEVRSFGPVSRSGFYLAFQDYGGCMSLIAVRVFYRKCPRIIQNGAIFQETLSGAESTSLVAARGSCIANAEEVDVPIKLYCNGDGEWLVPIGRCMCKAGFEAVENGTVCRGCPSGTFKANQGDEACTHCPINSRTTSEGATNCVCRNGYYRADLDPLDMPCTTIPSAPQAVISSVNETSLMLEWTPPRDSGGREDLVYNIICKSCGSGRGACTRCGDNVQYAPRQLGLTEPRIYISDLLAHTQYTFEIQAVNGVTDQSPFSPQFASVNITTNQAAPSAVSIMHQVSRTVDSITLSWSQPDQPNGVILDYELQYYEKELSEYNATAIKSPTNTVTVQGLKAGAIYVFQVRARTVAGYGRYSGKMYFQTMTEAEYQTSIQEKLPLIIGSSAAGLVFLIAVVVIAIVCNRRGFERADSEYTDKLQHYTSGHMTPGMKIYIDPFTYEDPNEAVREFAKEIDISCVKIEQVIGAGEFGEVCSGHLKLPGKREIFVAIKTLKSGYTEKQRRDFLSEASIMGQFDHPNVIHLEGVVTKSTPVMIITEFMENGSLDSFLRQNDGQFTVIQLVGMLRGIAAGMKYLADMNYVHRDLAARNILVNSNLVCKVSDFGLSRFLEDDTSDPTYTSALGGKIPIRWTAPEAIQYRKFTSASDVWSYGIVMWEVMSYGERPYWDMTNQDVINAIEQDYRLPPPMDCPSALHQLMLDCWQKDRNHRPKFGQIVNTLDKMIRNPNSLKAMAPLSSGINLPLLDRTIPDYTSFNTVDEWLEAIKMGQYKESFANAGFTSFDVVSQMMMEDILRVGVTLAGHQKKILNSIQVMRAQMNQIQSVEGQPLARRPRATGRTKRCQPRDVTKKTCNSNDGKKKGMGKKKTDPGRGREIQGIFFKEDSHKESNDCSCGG
# Experiment: phosphorylation enrichment, bacterial display (enrichment ratio); higher = better substrate or ligand; peptides without Tyr show the background
Measured parameter: phosphorylation enrichment
Enter the number alone.

Before answering, review these 3 worked examples.
INSERT INTO results (biopolymer_sequence, target_of_assay, observed_value) VALUES
  ('CPASVYTKRCS [CPT2_Y508_R503C]', 'EPHB2 (UniProt P29323)', 0.403),
  ('PTTKTYFPHFY [HBA1_Y43_D48Y]', 'EPHB2 (UniProt P29323)', 0.735),
  ('FPAVGYHKPHI [IDS_Y225_L221P]', 'EPHB2 (UniProt P29323)', 0.467);

// returns reported phosphorylation enrichment for input TAPYNYSYIFK [RAB14_Y8]
3.26

// returns reported phosphorylation enrichment for input GRQGIYTENKR [GPR143_Y231_E235K]
0.347

// returns reported phosphorylation enrichment for input FADTAYNYRHG [PAH_Y166_I164T]
0.362

// returns reported phosphorylation enrichment for input EQKKYYNAMKN [SCN5A_Y1495_K1500N]
0.335

// returns reported phosphorylation enrichment for input IDAVCYFRMEN [NPHS2_Y194_I192V_YF]
0.763

// returns reported phosphorylation enrichment for input FMRGMYFRMKD [PLA2G6_Y541_YF]
0.542

// returns reported phosphorylation enrichment for input HNQDDYSFPSR [LDLR_Y845_G844D_YF]
2.14
